Target: Genome polyprotein (dengue virus type 2, UniProt P29990)
Sequence (P29990 1346-1475 limits assumed): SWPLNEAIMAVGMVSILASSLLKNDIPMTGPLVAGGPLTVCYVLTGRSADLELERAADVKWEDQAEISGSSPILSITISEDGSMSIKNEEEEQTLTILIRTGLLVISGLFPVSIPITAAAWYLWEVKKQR
Sequence (P29990 1476-2093 limits assumed): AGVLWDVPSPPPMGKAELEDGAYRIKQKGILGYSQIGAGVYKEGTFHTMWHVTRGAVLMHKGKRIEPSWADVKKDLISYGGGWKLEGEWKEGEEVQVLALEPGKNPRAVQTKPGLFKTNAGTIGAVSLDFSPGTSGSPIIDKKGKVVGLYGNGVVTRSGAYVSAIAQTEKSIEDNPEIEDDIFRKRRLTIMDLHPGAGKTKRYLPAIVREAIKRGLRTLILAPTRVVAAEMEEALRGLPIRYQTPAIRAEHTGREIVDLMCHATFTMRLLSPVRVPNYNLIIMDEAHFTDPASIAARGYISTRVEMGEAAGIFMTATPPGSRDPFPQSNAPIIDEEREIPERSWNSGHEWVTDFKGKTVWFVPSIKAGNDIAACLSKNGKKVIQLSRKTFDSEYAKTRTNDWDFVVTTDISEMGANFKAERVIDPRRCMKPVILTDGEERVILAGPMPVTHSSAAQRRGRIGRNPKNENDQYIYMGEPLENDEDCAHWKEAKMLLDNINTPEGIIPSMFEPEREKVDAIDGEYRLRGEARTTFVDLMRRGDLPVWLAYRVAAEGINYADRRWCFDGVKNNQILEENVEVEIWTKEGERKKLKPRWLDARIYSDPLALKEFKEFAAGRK
Format: functional, Thailand/16681/1984
test_readout: IC50

Query string: Check the records and state IC50 for O=C(Nc1cc(Cl)cc(C(=O)Nc2cccc3c2CNC3)c1)OCc1ccccc1
Result string: > 99.5 µM

Query string: Check the records and state IC50 for C=CC[C@H](Nc1cc(CN)ccn1)c1cc(Cl)cc(NC(=O)OCc2ccccc2)c1
Result string: > 99.5 µM

Query string: Check the records and state IC50 for CCn1c(=O)c(N2C[C@H]3C[C@@H](O)CC[C@H]3C2)nc2ccccc21
Result string: > 99.5 µM

Query string: Check the records and state IC50 for O=C(Nc1ccc2c(c1)CNC2)c1cc(Cl)cc2nn(C3COC3)cc12
Result string: > 99.5 µM

Query string: Check the records and state IC50 for O=C(O)c1cc(Cl)ccc1NS(=O)(=O)c1ccc(Oc2ccccc2)cc1
Result string: 21.7 µM

Query string: Check the records and state IC50 for CCn1c(=O)c(N2C[C@H]3CN(C)CC[C@H]3C2)nc2ccccc21
Result string: > 99.5 µM

Query string: Check the records and state IC50 for NCc1cccc(NC(=O)[C@H](NS(=O)(=O)c2cccc(Cl)c2)c2ccc(OCc3ccccc3)cc2)c1
Result string: > 99.5 µM

Query string: Check the records and state IC50 for CCn1nc(C)c(CN(C)Cc2ccc3c(c2)CCNCC3)c1C
Result string: > 99.5 µM

Query string: Check the records and state IC50 for CCn1c(=O)c(N2CC[C@H](CO)C2)nc2cc(C(=O)NS(C)(=O)=O)ccc21
Result string: > 99.5 µM

Query string: Check the records and state IC50 for CN1Cc2ccc(CNC(=O)[C@@H](NC(=O)OCc3ccccc3)c3ccc(OCc4ccccc4)cc3)cc2C1
Result string: > 99.5 µM
